# assay.notes: In vivo PK study (plasma and brain exposure)
# Set-up: species or system CD1 mouse
# condition.parameters: male, CD1, mouse, serum, iv, 2 mg/kg, CD1 mouse, i.v. 2 mg/kg; read-out: IV-2mpk T1/2 (converted)
measurement.type: log10 of half-life (log10 of the value in h)

# molecule, log10 of half-life
rows = [
    ("COc1cnc2c(Cc3cnc(OCc4cc5n(n4)C[C@H](OC)C5)c(OC)c3)ccnc2c1", -0.11),
    ("CNC(=O)c1cc(Oc2ccc3nc(N[C@@H]4CCCC[C@H]4O)sc3c2)ccn1 [BLZ945, reference compound]", 0.64),
    ("COc1cnc2c(Cc3cnc(OCc4cc5n(n4)CCOC5)c(OC)c3)ccnc2c1", 0.40),
    ("COc1ccc(COc2ncc(Cc3ccnc4cc(OC)cnc34)cc2OC)nc1", 0.40),
    ("COc1ccc(COc2ncc(Cc3ccnc(-c4cnn(C)c4)n3)cc2OC)nc1 [Comparator A, reference compound]", 0.13),
    ("COc1ncc(F)cc1CNc1ccc(Cc2c[nH]c3ncc(C)cc23)c(F)n1 [PLX5622, reference compound]", 0.57),
    ("COc1ccc(COc2ccc(Cc3cnc(N)nc3N)cc2OC)cc1 [GW2580, reference compound]", 0.08),
    ("COc1ccc(COc2ncc(Cc3ccnc4cc(-c5ccn(C)n5)cnc34)cc2OC)nc1", 0.14),
    ("COc1ccc(COc2ncc(Cc3ccnc4cc(N5CCN(C)CC5)cnc34)cc2OC)nc1", 0.81),
    ("COc1cnc2c(Cc3cnc(OCc4ccc(C(F)(F)F)nc4)c(OC)c3)ccnc2c1", 1.15),
]

* * *

# assay.notes: In vivo PK study (plasma and brain exposure)
# Set-up: species or system CD1 mouse
# condition.parameters: male, serum, po; CD1 mouse, p.o. 45 mg/kg; Tables 5 and 6; read-out: PO-45mpk AUClast
measurement.type: AUC(0-t) (ng·h/mL)

# compound, value.units, experimental.value
measured = [
    ("COc1ccc(COc2ccc(Cc3cnc(N)nc3N)cc2OC)cc1 [GW2580, reference compound]", "ng·h/mL", 27700),
    ("COc1ccc(COc2ncc(Cc3ccnc4cc(N5CCN(C)CC5)cnc34)cc2OC)nc1", "ng·h/mL", 5370),
    ("COc1ncc(F)cc1CNc1ccc(Cc2c[nH]c3ncc(C)cc23)c(F)n1 [PLX5622, reference compound]", "ng·h/mL", 163000),
    ("COc1ccc(COc2ncc(Cc3ccnc4cc(-c5ccn(C)n5)cnc34)cc2OC)nc1", "ng·h/mL", 96400),
]

* * *

# Tested on: CSF1R phosphorylation in THP-1 cells
# assay.notes: Inhibition of CSF1R phosphorylation in THP-1 monocytes (ELISA, Table D)
# Format: cell-based, human
# condition.parameters: Homo sapiens; THP-1 cells, pCSF1R ELISA, 1 hour pretreatment, M-CSF 5 minutes

# compound, value.units, IC50
measured = [
    ("FC(F)(F)c1ccc(CNc2ccc(Cc3c[nH]c4ncc(Cl)cc34)cn2)cn1 [PLX3397, reference compound]", "nM", 45.4),
]

* * *

# assay.target: CSF-1R (Homo sapiens (Human), UniProt P07333)
# Sequence (P07333 20-972): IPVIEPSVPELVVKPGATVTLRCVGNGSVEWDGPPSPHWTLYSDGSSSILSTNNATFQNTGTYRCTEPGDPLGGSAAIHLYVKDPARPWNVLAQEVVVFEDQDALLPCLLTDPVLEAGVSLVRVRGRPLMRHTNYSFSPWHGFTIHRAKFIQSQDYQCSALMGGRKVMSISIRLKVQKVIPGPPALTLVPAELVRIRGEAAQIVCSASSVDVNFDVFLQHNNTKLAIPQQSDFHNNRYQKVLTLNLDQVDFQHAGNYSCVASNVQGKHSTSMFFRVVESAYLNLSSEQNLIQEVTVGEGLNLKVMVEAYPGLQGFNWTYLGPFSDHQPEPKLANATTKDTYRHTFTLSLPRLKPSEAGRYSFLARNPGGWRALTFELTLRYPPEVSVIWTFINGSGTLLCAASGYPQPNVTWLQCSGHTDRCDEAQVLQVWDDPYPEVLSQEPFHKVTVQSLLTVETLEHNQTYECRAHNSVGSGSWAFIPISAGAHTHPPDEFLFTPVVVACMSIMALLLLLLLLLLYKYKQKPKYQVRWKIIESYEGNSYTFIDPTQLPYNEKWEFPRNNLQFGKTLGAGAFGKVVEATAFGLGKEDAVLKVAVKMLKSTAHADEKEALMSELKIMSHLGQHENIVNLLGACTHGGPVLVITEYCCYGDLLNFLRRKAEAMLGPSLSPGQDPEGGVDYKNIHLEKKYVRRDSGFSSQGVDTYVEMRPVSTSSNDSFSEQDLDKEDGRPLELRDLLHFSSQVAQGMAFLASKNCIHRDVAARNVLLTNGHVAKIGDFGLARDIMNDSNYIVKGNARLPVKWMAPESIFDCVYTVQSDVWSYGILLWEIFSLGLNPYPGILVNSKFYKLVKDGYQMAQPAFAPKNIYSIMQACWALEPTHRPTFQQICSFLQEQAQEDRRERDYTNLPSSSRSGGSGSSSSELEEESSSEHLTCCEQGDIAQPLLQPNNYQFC
# assay.notes: Biochemical HTRF kinase assay, CSF-1R
# condition.parameters: Table 2; recombinant human CSF-1R
pIC50: −log10 of the molar value.
Listed below: pIC50 values for each entry.

# compound.structure, assay.target, pIC50
data = [
    ("[2H]C([2H])([2H])Oc1cc(Cc2ccnc3cc(OC)cnc23)cnc1OCc1ccc(OC)cn1", "CSF-1R (Homo sapiens (Human), UniProt P07333)", 8.48),
    ("[2H]C([2H])(c1cnc(OCc2ccc(OC)cn2)c(OC)c1)c1ccnc2cc(OC)cnc12", "CSF-1R (Homo sapiens (Human), UniProt P07333)", 8.47),
    ("COc1cnc2c(Cc3cnc(OCc4ccc(OC)nn4)c(OC)c3)ccnc2c1", "CSF-1R (Homo sapiens (Human), UniProt P07333)", 7.70),
    ("COc1ccc(COc2ncc(Cc3ccnc4ccc(OC)nc34)cc2OC)nc1", "CSF-1R (Homo sapiens (Human), UniProt P07333)", 7.22),
    ("COc1cnc2c(Cc3cnc(OCc4ccn5nccc5c4)c(OC)c3)ccnc2c1", "CSF-1R (Homo sapiens (Human), UniProt P07333)", 8.10),
    ("COc1cnc2c(Cc3cnc(OCc4ccc5ccnn5c4)c(OC)c3)ccnc2c1", "CSF-1R (Homo sapiens (Human), UniProt P07333)", 8.20),
    ("COc1ccc2c(Cc3ccc(OCc4nc5ccccc5n4C)c(OC)c3)ccnc2c1", "CSF-1R (Homo sapiens (Human), UniProt P07333)", 6.83),
    ("COc1ccc2c(Cc3ccc(OCc4ccn5nccc5c4)c(OC)c3)ccnc2c1", "CSF-1R (Homo sapiens (Human), UniProt P07333)", 8.10),
]

* * *

# assay.target: UniProt P07333
# assay.notes: Biochemical HTRF kinase assay, CSF-1R
# condition.parameters: Table 2; recombinant human CSF-1R
pIC50: −log10 of the molar value.
Measured pIC50, listed per entry.

# molecule, pIC50
records = [
    ("COc1ccc(COc2ncc(Cc3ccnc4cc(-n5cc(C)cn5)cnc34)cc2OC)nc1 [Example 142]", 7.86),
    ("COc1cnc2c(Cc3cnc(OCc4cc5cccnc5[nH]4)c(OC)c3)ccnc2c1 [Example 149]", 8.41),
    ("COc1cnc2c(Cc3cnc(OCc4nc5cccnc5n4C)c(OC)c3)ccnc2c1 [Example 132]", 6.06),
    ("COc1ccc2c(Cc3ccc(OCc4ccn5ccnc5c4)c(OC)c3)ccnc2c1 [Example 6]", 8.09),
    ("COc1cnc2c(Cc3cnc(OCc4cc5n(n4)CCCOC5)c(OC)c3)ccnc2c1 [Example 107]", 8.80),
    ("COc1cnc2c(Cc3cnc(OCc4cnc5c(c4)CC[C@H]5OC)c(OC)c3)ccnc2c1 (stereo in doubt) [Example 105]", 8.62),
    ("COc1cnc2c(Cc3cnc(OCc4cccc(N5CCC5)n4)c(OC)c3)ccnc2c1 [Example 118]", 8.44),
    ("COc1cnc2c(Cc3cnc(OCc4cnc5c(c4)CCC5OC)c(OC)c3)ccnc2c1 (centres unmarked) [Example 92]", 8.74),
]

* * *

# assay.notes: In vivo PK study (plasma and brain exposure)
# Set-up: species or system CD1 mouse
# condition.parameters: male, serum, po; CD1 mouse, p.o. 45 mg/kg; read-out: PO-45mpk Cmax
Please use rule met whenever Cmax is not below 20000 ng/mL, and rule not met whenever it is.

# compound, class.label
rows = [
    ("COc1ccc(COc2ncc(Cc3ccnc4cc(OC)cnc34)cc2OC)nc1 [Example 16]", "rule met"),
    ("COc1ncc(F)cc1CNc1ccc(Cc2c[nH]c3ncc(C)cc23)c(F)n1 [PLX5622, reference compound]", "rule met"),
    ("COc1ccc(COc2ncc(Cc3ccnc(-c4cnn(C)c4)n3)cc2OC)nc1 [Comparator A, reference compound]", "rule met"),
    ("COc1cnc2c(Cc3cnc(OCc4cc5n(n4)C[C@H](OC)C5)c(OC)c3)ccnc2c1 [Example 136]", "rule met"),
    ("COc1ccc(COc2ncc(Cc3ccnc4cc(N5CCN(C)CC5)cnc34)cc2OC)nc1 [Example 116]", "rule not met"),
    ("COc1cnc2c(Cc3cnc(OCc4ccc(C(F)(F)F)nc4)c(OC)c3)ccnc2c1 [Example 45]", "rule not met"),
    ("CNC(=O)c1cc(Oc2ccc3nc(N[C@@H]4CCCC[C@H]4O)sc3c2)ccn1 [BLZ945, reference compound]", "rule met"),
    ("COc1cnc2c(Cc3cnc(OCc4cc5n(n4)CCOC5)c(OC)c3)ccnc2c1 [Example 73]", "rule met"),
    ("COc1ccc(COc2ccc(Cc3cnc(N)nc3N)cc2OC)cc1 [GW2580, reference compound]", "rule not met"),
    ("COc1ccc(COc2ncc(Cc3ccnc4cc(-c5ccn(C)n5)cnc34)cc2OC)nc1 [Example 134]", "rule not met"),
]

* * *

# assay.target: CSF-1R (Homo sapiens (Human), UniProt P07333)
# assay.notes: Biochemical HTRF kinase assay, CSF-1R;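 note: enzyme incubated with inhibitor plus a substrate and ATP mix for one hour at room temperature before HTRF detection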
# condition.parameters: Table 2; recombinant human CSF-1R
// log10(IC50) lookup, one value per entry
measurement.type: log10(IC50) (log10 of the value in nM)

# compound, assay.target, experimental.value
data = [
    ("COc1ccc(COc2ccc(Cc3ccnc4cc(OC)cnc34)cc2OC)cc1", "CSF-1R (Homo sapiens (Human), UniProt P07333)", 0.94),
    ("COc1ccc2c(Cc3ccc(OCc4ccc(C(F)(F)F)cc4)c(OC)c3)ccnc2c1", "CSF-1R (Homo sapiens (Human), UniProt P07333)", 2.07),
    ("COc1ccc2c(Cc3ccc(OCc4ccc5nccn5c4)c(OC)c3)ccnc2c1", "CSF-1R (Homo sapiens (Human), UniProt P07333)", 0.72),
    ("COc1cnc2c(Cc3cnc(OCc4cc5n(n4)C[C@@H](F)C5)c(OC)c3)ccnc2c1", "CSF-1R (Homo sapiens (Human), UniProt P07333)", 0.69),
    ("COc1ccc2c(Cc3ccc(OCc4cc(C)no4)c(OC)c3)ccnc2c1", "CSF-1R (Homo sapiens (Human), UniProt P07333)", 1.37),
    ("COc1ccc(COc2ncc(Cc3ccnc4cc(N5CC(F)(F)C5)cnc34)cc2OC)nc1", "CSF-1R (Homo sapiens (Human), UniProt P07333)", 1.05),
    ("COc1ccc(COc2ncc(C(F)c3ccnc4cc(OC)cnc34)cc2OC)nc1 (centres unmarked)", "CSF-1R (Homo sapiens (Human), UniProt P07333)", 1.45),
    ("COc1ccc(COc2ncc(Cc3ccnc4cc(-c5ccn(C)n5)cnc34)cc2OC)nc1", "CSF-1R (Homo sapiens (Human), UniProt P07333)", 0.82),
]
